B1: EPB41L3 (parent)
chain: KKFLTLGSKFRYSGRTQAQTRRAS

- Variants of: B1
- measurementNotes: protein stability index of a GFP-peptide fusion (GPS, HEK-293T) (PSI 1-6); higher = more stable;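 note: lentivirally expressed fusions sorted by FACS into six bins by GFP to DsRed ratio, PSI derived from sequencing read proportions per bin multiplied by bin number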
- conditionLabel: c terminus: a fixed tail appended
Entries annotated with measured protein stability index
quantityKind: protein stability index

>>> endpointresult("L4C")
3.06
>>> endpointresult("L4F")
2.99
>>> endpointresult("G14Y")
3.03
>>> endpointresult("T16M")
2.99
